Assay: collision cross section of modified peptide (TIMS, N2, iRT-aligned); higher = larger / more extended gas-phase ion
Conditions: charge state: 3; modification: Methyl (K)
± gives the standard deviation.
measurement_label: collision cross section

Worked examples, 10 sequences total:
SPDEAYAIAKK [_SPDEAYAIAK(Methyl (K))K_] :: 436.75 ± 4.3 Å²
IHNAENIQPGEQKYEYK [_IHNAENIQPGEQK(Methyl (K))YEYK_] :: 526.19 ± 0.79 Å²
LTEKELAEAASK [_LTEK(Methyl (K))ELAEAASK_] :: 445.12 ± 4.9 Å²
KYEEIDNAPEER [_K(Methyl (K))YEEIDNAPEER_] :: 466.31 ± 3.7 Å²
SKHLQEQLNELK [_SK(Methyl (K))HLQEQLNELK_] :: 492.52 ± 1.8 Å²
VFIGNLNTLVVKKK [_VFIGNLNTLVVK(Methyl (K))KK_] :: 483.02 ± 5.9 Å²
DESFLGKLGGTLAR [_DESFLGK(Methyl (K))LGGTLAR_] :: 471.83 ± 2.8 Å²
VYIASSSGSTAIKK [_VYIASSSGSTAIK(Methyl (K))K_] :: 495.87 ± 3.1 Å²
GTVPDDAVEALADSLGKK [_GTVPDDAVEALADSLGK(Methyl (K))K_] :: 524.02 ± 2.6 Å²
VPTTEKPTVTVNFR [_VPTTEK(Methyl (K))PTVTVNFR_] :: 510.49 ± 2 Å²

State its collision cross section for this sequence: TTEETSKPK [_TTEETSK(Methyl (K))PK_] 431.66 Å²

Quick one: give measured collision cross section for VFSIISSEKELK [_VFSIISSEK(Methyl (K))ELK_] 489.57 ± 1.9 Å²

Given the sequence GEVGAGAGPGAQAGPSAKR [_GEVGAGAGPGAQAGPSAK(Methyl (K))R_] , write its reported collision cross section. 489.3 ± 3.6 Å²

Hello, please tell me recorded collision cross section for this one: VFIGNLNTLVVKK [_VFIGNLNTLVVK(Methyl (K))K_] 477.31 ± 4.3 Å²

Tell me collision cross section reported for DTGEKLTVAENEAETK [_DTGEK(Methyl (K))LTVAENEAETK_] 482 ± 3.4 Å²

Complete the entry with collision cross section for LLIVSTTPYSEKDTK [_LLIVSTTPYSEK(Methyl (K))DTK_] 508.6 ± 2 Å²

Name the recorded collision cross section of the sequence listed here: LEEVTGKLQVAR [_LEEVTGK(Methyl (K))LQVAR_] 474.94 ± 3.5 Å²

Supply collision cross section value. Item: DTPTSAGPNSFNKGK [_DTPTSAGPNSFNK(Methyl (K))GK_] 460.78 ± 4.6 Å²

Report collision cross section for ITESVAETAQTIKK [_ITESVAETAQTIK(Methyl (K))K_] 507.98 ± 2.8 Å²

* * *

The following sequences are shown together with reported collision cross section values.
Assay: collision cross section of modified peptide (TIMS, N2, iRT-aligned); higher = larger / more extended gas-phase ion
Settings: charge state: 2; modification: hydroxyisobutyryl
± gives the standard deviation.
State the value with its unit after it.

Example entries begin here.
PANEKATDDYHYEK [_PANEK(hydroxyisobutyryl)ATDDYHYEK_] :: 446.18 ± 0.51 Å²
ATVASSTQKFQDLGVK [_ATVASSTQK(hydroxyisobutyryl)FQDLGVK_] :: 453.68 ± 1.4 Å²
DSSPTTNSKLSALQR [_DSSPTTNSK(hydroxyisobutyryl)LSALQR_] :: 437.4 ± 0.29 Å²

Now let's try a different one.
Given PASGAGAGAGAGKR [_PASGAGAGAGAGK(hydroxyisobutyryl)R_] , respond with its collision cross section. 363.2 ± 0.9 Å²

* * *

Test: collision cross section of modified peptide (TIMS, N2, iRT-aligned); higher = larger / more extended gas-phase ion
Conditions: charge state: 2; modification: Formyl
# collision cross section >= 400 Å² gives 1.0, anything below gives 0.0

Use these answered entries as a reference point.
DVNAAIAAIKTK [_DVNAAIAAIK(Formyl)TK_] :: 0.0
GTISAPGKVVTAAAQAK [_GTISAPGK(Formyl)VVTAAAQAK_] :: 1.0
IVFSGNLFQHQEDSKK [_IVFSGNLFQHQEDSK(Formyl)K_] :: 1.0
LDHLAEKFR [_LDHLAEK(Formyl)FR_] :: 0.0
FGTINIVHPKLGSYTK [_FGTINIVHPK(Formyl)LGSYTK_] :: 1.0
LLIVSTTPYSEKDTK [_LLIVSTTPYSEK(Formyl)DTK_] :: 1.0
DLSTVEALQNLKNLK [_DLSTVEALQNLK(Formyl)NLK_] :: 1.0
VLDSGAPIKIPVGPETLGR [_VLDSGAPIK(Formyl)IPVGPETLGR_] :: 1.0

Entry ATVASSTQKFQDLGVK [_ATVASSTQK(Formyl)FQDLGVK_] : is its collision cross section no less than 400 Å²? 1.0

Evaluate PGGEGPQCEKTTDVK [_PGGEGPQCEK(Formyl)TTDVK_] : collision cross section at minimum 400 Å²? 1.0

Is the recorded value of collision cross section equal to or greater than 400 Å² for this sequence? ANLEKAQAELVGTADEATR [_ANLEK(Formyl)AQAELVGTADEATR_] 1.0

Decide: collision cross section of GETASKLQSEISR [_GETASK(Formyl)LQSEISR_] >= 400 Å²? 0.0

* * *

Assay: collision cross section of unmodified peptide (TIMS, N2, iRT-aligned); higher = larger / more extended gas-phase ion
Conditions: charge state: 3
measurement_label: collision cross section (Å²)
State just the number; it will be interpreted in Å².

Reference set, count: 2
DNNNSNNRGSYNR :: 461.19
VTRYPILGIPQAHR :: 523.45

Output measured collision cross section for this item: `LGILPVGRGK` 438.91

* * *

Assay: collision cross section of modified peptide (TIMS, N2, iRT-aligned); higher = larger / more extended gas-phase ion
Conditions: charge state: 2; modification: Trimethyl (K)
Reported collision cross section values for the following sequences.
# number only, unit Å² dropped from output

These solved cases illustrate the format of a correct answer.
KYEEIDNAPEER [_K(Trimethyl (K))YEEIDNAPEER_] :: 405.59
IISSIEQKEENK [_IISSIEQK(Trimethyl (K))EENK_] :: 411.54

Now consider a different sequence.
Please indicate collision cross section recorded for SGKFTQQDIDEAK [_SGK(Trimethyl (K))FTQQDIDEAK_] 408.18

* * *

Measured collision cross section, listed per entry for reference.
Assay: collision cross section of modified peptide (TIMS, N2, iRT-aligned); higher = larger / more extended gas-phase ion
Details: charge state: 2; modification: Glutarylation
± gives the standard deviation.

Given the sequence KFGVLSDNFK [_K(Gluratylation)FGVLSDNFK_] , write its reported collision cross section. 380.33 ± 0.73 Å²

Fill in collision cross section for record VLTANSNPSSPSAAKR [_VLTANSNPSSPSAAK(Gluratylation)R_] 432.88 ± 2 Å²

Name the recorded collision cross section of the sequence listed here: AGQKLIDVNHYAK [_AGQK(Gluratylation)LIDVNHYAK_] 437.49 ± 0.96 Å²

Fill in reported collision cross section for this entry: ASDTSSETVFGKR [_ASDTSSETVFGK(Gluratylation)R_] 400.66 ± 0.51 Å²

Give the measured collision cross section for DAEAAEATAEGALKAEK [_DAEAAEATAEGALK(Gluratylation)AEK_] 438.1 ± 0.96 Å²

For the sequence GFCFITYTDEEPVKK [_GFCFITYTDEEPVK(Gluratylation)K_] , give its measured collision cross section value. 471.64 ± 1.5 Å²

Look up and report measured collision cross section for this entry: VYIASSSGSTAIKK [_VYIASSSGSTAIK(Gluratylation)K_] 420.03 ± 1.5 Å²

For the sequence LLEQKTQESQK [_LLEQK(Gluratylation)TQESQK_] , give its reported collision cross section. 402.96 ± 0.5 Å²

Fill in reported collision cross section for this entry: GSLEKGSPEDK [_GSLEK(Gluratylation)GSPEDK_] 373.46 ± 0.99 Å²

Return collision cross section (reported value) for this sequence: LQLEIDQKK [_LQLEIDQK(Gluratylation)K_] 373.2 ± 0.7 Å²

Input ATVASSTQKFQDLGVK [_ATVASSTQK(Gluratylation)FQDLGVK_] , output reported collision cross section. 449.16 ± 1.1 Å²

* * *

Assay: collision cross section of modified peptide (TIMS, N2, iRT-aligned); higher = larger / more extended gas-phase ion
Conditions: charge state: 2; modification: Formyl
measurement_label: collision cross section (Å²)
The response must be a number in Å² with no trailing unit.

LQDVSGQLSSSKK [_LQDVSGQLSSSK(Formyl)K_] :: 394.61
DLGKFQVATDALK [_DLGK(Formyl)FQVATDALK_] :: 403.92
VTLEVGKVIQQGR [_VTLEVGK(Formyl)VIQQGR_] :: 402.06
SLEEEGAAHSGKR [_SLEEEGAAHSGK(Formyl)R_] :: 409.43

Proceeding to the next sequence to report its collision cross section.
Please look at this sequence and report its collision cross section: ASDTSSETVFGKR [_ASDTSSETVFGK(Formyl)R_] 390.61
